measurement target: Prostaglandin E2 receptor EP2 subtype (Rattus norvegicus, UniProt Q62928)
Sequence (Q62928 whole entry): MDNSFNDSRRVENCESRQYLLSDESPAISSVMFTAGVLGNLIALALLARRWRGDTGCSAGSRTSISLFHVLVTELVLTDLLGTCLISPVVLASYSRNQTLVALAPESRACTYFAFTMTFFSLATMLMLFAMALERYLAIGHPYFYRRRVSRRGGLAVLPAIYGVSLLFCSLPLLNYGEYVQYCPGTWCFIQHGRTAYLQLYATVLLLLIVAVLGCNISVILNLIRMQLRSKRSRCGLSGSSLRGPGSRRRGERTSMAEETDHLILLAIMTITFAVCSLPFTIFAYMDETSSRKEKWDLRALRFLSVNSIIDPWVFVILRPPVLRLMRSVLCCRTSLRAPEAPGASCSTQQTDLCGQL
experiment notes: SEAP Activity Assay
assay conditions: 37 °C
Can you tell me EC50 for the items I'm about to list?
Give bare numbers, in nM.

- molecule: "CCC#CC[C@H](C)[C@H](O)/C=C/[C@H]1CC(F)(F)C(=O)N1CCCc1ccc(C(=O)O)s1 [US9180116, 24D]"
  output unit: "nM"
  EC50: 763

-- ask Respond only with EC50 recorded for C[C@@H](CCc1ccccc1)[C@@H](O)/C=C/[C@H]1CC(F)(F)C(=O)N1CCCc1ccc(C(=O)O)s1 [US9180116, 37D]
-- reply 743
